FYI, the data here is from PubChem BioAssay AID449762.

# experimental protocol: M. tuberculosis growth inhibition, HTS (AID 449762);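 further: bacterial growth assessed after seven days of incubation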
# assay context: M. tuberculosis H37Rv growth inhibition, 7H9 media; at 25 µM; stronger effect = higher value
Among all 330,000 compounds or so, about 1,900 (0.58%) were called active. Not shown: some 4% with an inconclusive outcome. A selection follows. Potency and affinity values are given separately.
observable: inhibition (%)
// return numeric value only (unit: %, not printed)

Data point: O=C(CC1SC(=O)N(c2ccccc2)C1=O)Nc1ccc(Cl)cc1 (stereo unspecified) ; inhibition = -2.72

Data point: CC[C@@]12C(=O)N(c3cccc(F)c3)C(=O)N1[C@H](c1ccc(F)cc1)[C@@H]1C(=O)N(C3CCCCC3)C(=O)[C@@H]12 ; inhibition = 0.17

Data point: O=C(Nc1ncc2c(n1)-c1ccccc1OC2)c1ccc(Cl)cc1Cl ; inhibition = -7.91

###

# experimental protocol: M. tuberculosis growth inhibition, HTS (AID 449762);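 further: bacterial growth assessed after seven days of incubation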
# assay context: M. tuberculosis H37Rv growth inhibition, 7H9 media; at 25 µM; stronger effect = higher value
The campaign covered roughly 330,000 compounds. About 1,900 (0.58%) were called active. Another 4% or so got no clear call; they are omitted. Only a sample is shown. Entries with a potency or affinity are not part of this list.
observable: inhibition (%)
// return numeric value only (unit: %, not printed)

Oc1ccc(C[C@H]2CNCCN2CC2CCCCC2)cc1 = 7.27

# context switch: different molecule, same inhibition
Data point: COc1cc(C(=O)OCC(=O)NCc2ccccc2)cc(NC(=O)c2ccco2)c1OC ; inhibition = 6.91

###

# experimental protocol: M. tuberculosis growth inhibition, HTS (AID 449762);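 further: bacterial growth assessed after seven days of incubation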
# assay context: M. tuberculosis H37Rv growth inhibition, 7H9 media; at 25 µM; stronger effect = higher value
Hit rate of the full screen: of about 330,000 compounds, about 1,900 (0.58%) were called active. Inconclusive results (about 4%) are left out. Not all results are given here. Measured potencies and affinities stand elsewhere.
Form field: inhibition (one value per entry).
// return numeric value only (unit: %, not printed)

O=C(Cn1c(=O)c2cccn2c2cccnc21)N1CCN(c2ccc(Cl)cc2)CC1 = 0.96
CC(C)(C)c1ccc(C(=O)NNc2cc(N3CCOCC3)nc(N3CCOCC3)n2)cc1 = 1.03
NNC(=O)CN1C(c2ccc(Cl)cc2)=Nc2ccc(Br)cc2C1c1ccccc1 (stereo not given) = 0.4

Data point: CCCn1ncc(CN2CCC(Cc3cccc(F)c3)(C(=O)OCC)CC2)c1C ; inhibition = -1.6

Data point: COC(=O)c1ccc(NC(=S)N2CCN(Cc3ccccc3Cl)CC2)cc1 ; inhibition = 3.97

###

# experimental protocol: M. tuberculosis growth inhibition, HTS (AID 449762);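 further: bacterial growth assessed after seven days of incubation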
# assay context: M. tuberculosis H37Rv growth inhibition, 7H9 media; at 25 µM; stronger effect = higher value
Screen size: about 330,000 compounds; about 1,900 (0.58%) were called active. Not shown: some 4% with an inconclusive outcome. The list is a sample of the results. Measured potencies and affinities stand elsewhere.
observable: inhibition (%)
// return numeric value only (unit: %, not printed)

Use these answered entries as a reference point.
CCN(CC)C(=O)CC(c1ccc(OC)cc1)c1c(O)cc(OC)cc1OC (configuration not stated) = -3.84
Cc1nc2ccccn2c1C(=O)N/N=C/c1ccccc1 = -1.76
O=C(Nc1nc2ccccc2[nH]1)C1CC1 = -4.47
O=C(Nc1ccccc1)N(CCCN1CCOCC1)Cc1ccccc1F = -5.07
CCO[C@H]1OC(C(=O)NC2CC2)=C[C@@H](c2csc3ccccc23)[C@@H]1CCCO = 2.79
CC(C)(C)NC(=O)C(c1ccco1)N(C(=O)Cn1nnc(-c2ccc(F)cc2)n1)c1cccc(F)c1 (configuration not stated) = 5.34
COC(=O)c1ccc(COC(=O)c2ccc(CO)cc2)o1 = 9.22
CCCN1C(=O)N(c2cccc(C)c2)C(C)(O)CC1(C)C (configuration not stated) = 0.42
C#Cc1ccc2c(c1)COc1c3ccccc3nn1-2 = 26.7
CC(=O)Nc1nc2ccccc2[nH]1 = -2.83

Data point: CCOc1cc(C(N)=O)cc(Br)c1OC ; inhibition = -2.81

Data point: CC1CC(C)CN(CCOc2ccccc2-c2ccccc2)C1 (configuration not stated) ; inhibition = 3.01

###

# experimental protocol: M. tuberculosis growth inhibition, HTS (AID 449762);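 further: bacterial growth assessed after seven days of incubation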
# assay context: M. tuberculosis H37Rv growth inhibition, 7H9 media; at 25 µM; stronger effect = higher value
The campaign covered roughly 330,000 compounds. About 1,900 (0.58%) were called active. Not shown: some 4% with an inconclusive outcome. Only a sample is shown. Results with a measured potency or affinity are listed apart.
observable: inhibition

Data point: O=C(Nc1ccncc1)c1cc(S(=O)(=O)N2CCCC2)ccc1Cl ; inhibition = 5.2% (inactive)

###

# experimental protocol: M. tuberculosis growth inhibition, HTS (AID 449762);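 further: bacterial growth assessed after seven days of incubation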
# assay context: M. tuberculosis H37Rv growth inhibition, 7H9 media; at 25 µM; stronger effect = higher value
The campaign covered roughly 330,000 compounds. About 1,900 (0.58%) were called active. Another 4% or so got no clear call; they are omitted. Only a sample is shown. Entries with a potency or affinity are not part of this list.
observable: inhibition (%)
// return numeric value only (unit: %, not printed)

C[C@]12CC[C@@H](O)CC1=CC(=O)C1C2CC[C@]2(C)C(=O)CCC12 (stereo partly specified) = 3.17

Data point: Cc1cc(C)nc(Nc2ncn[nH]2)n1 ; inhibition = 6.87

###

# experimental protocol: M. tuberculosis growth inhibition, HTS (AID 449762);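 further: bacterial growth assessed after seven days of incubation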
# assay context: M. tuberculosis H37Rv growth inhibition, 7H9 media; at 25 µM; stronger effect = higher value
Hit rate of the full screen: of about 330,000 compounds, about 1,900 (0.58%) were called active. Not shown: some 4% with an inconclusive outcome. Only a sample is shown. Measured potencies and affinities stand elsewhere.
observable: inhibition (%)
// return numeric value only (unit: %, not printed)

Cc1ccc2[nH]c(=O)c(CN(CC3CCCO3)C(=O)c3ccncc3)cc2c1 (stereo not given) = 4.74
CC(=O)c1cccc(NC(=O)c2ccc(S(=O)(=O)N3CCCCC3)cc2)c1 = -2.95
COC(=O)CSc1nnc(CNc2nc(-c3ccccc3)cs2)n1C = -7.67
COc1ccc(NC(=O)CSc2nnnn2-c2ccc(F)cc2)cc1 = -7.12
CC(C)OC(=O)CSc1nnc(CNc2nc(-c3ccccc3)cs2)n1C = 0.34
CC(OC(=O)Cc1n[nH]c(=O)c2ccccc12)C(=O)Nc1ccc(F)cc1Cl (stereo not given) = -10.4
COc1cc(C(=O)NCC(c2cccs2)N2CCOCC2)cc(OC)c1OC (stereo not given) = 7.52
Cc1c(Nc2nc(-c3ccccc3)cs2)c(=O)n(-c2ccccc2)n1C = 0.86
CCOC(=O)Cn1nc(-c2ccc(C)cc2)ccc1=O = -1.62
CC(C)CNC(=O)/C(C#N)=C1\N=C(NC(=O)c2ccco2)c2ccccc21 = 12.4

Data point: CC(C)C(=O)Nc1cccc(-c2nc3ccccc3o2)c1 ; inhibition = -4.29

Data point: COc1cccc(N=Nc2c(=O)[nH]n3c(C)cc(C)nc23)c1 ; inhibition = 0.98

###

# experimental protocol: M. tuberculosis growth inhibition, HTS (AID 449762);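 further: bacterial growth assessed after seven days of incubation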
# assay context: M. tuberculosis H37Rv growth inhibition, 7H9 media; at 25 µM; stronger effect = higher value
In all, about 330,000 compounds went through this assay and about 1,900 (0.58%) were called active. About 4% were inconclusive and are not listed. The list is a sample of the results. Entries with a potency or affinity are not part of this list.
observable: inhibition (%)
// return numeric value only (unit: %, not printed)

Data point: CCN(CC)c1ccc(NS(=O)(=O)c2cn(C)c(=O)n(C)c2=O)c(C)c1 ; inhibition = -6.59

Data point: CCOc1cccc(/C=N/NC(=S)Nc2ccccc2[N+](=O)[O-])c1O ; inhibition = 0.56

Data point: COc1cccc(C=Nc2cc(C)cc(C)c2)c1O ; inhibition = 4.13

Data point: CN(C)C(=O)c1cc(C(=O)c2ccc(F)cc2C(F)(F)F)c[nH]1 ; inhibition = -3.23

Data point: Cc1cc(C(=O)NCC(=O)Nc2c(C)cccc2C)c2ccccc2n1 ; inhibition = -6.3

Data point: CNC(=O)CS(=O)(=O)CC(=O)Nc1cc(OC(C)C)c(Cl)cc1Cl ; inhibition = -5.55

Data point: COc1ccc(/C=C2\SC(=O)N(CCNC(=O)Cn3[nH]c(=O)c4ccccc4c3=O)C2=O)cc1 ; inhibition = 1.03

Data point: CCOc1cccc(C=NCCc2ccc(OC)c(OC)c2)c1O ; inhibition = -1.63

Data point: Cc1ccc(C)c(NC(=O)CCNS(=O)(=O)c2ccc3[nH]c(=O)oc3c2)c1 ; inhibition = -1.71

Data point: N=c1c2c(-c3ccccc3)c(-c3ccccc3)n(Cc3ccco3)c2ncn1CCCO ; inhibition = 16.4

Data point: CC(=O)CSc1nsc(SCC(C)=O)c1C#N ; inhibition = -3.69

Data point: CCOC(=O)N/N=C(C)/C=C/c1ccccc1 ; inhibition = -3.41

Data point: COc1ccc(-c2cc3nc[nH]c(=O)c3s2)cc1 ; inhibition = 65.4

Data point: CCCc1nc2nc(C)c(NS(=O)(=O)c3ccc(Cl)cc3)c(=O)n2[nH]1 ; inhibition = -4.54

Data point: Cc1ccc(C(=O)NC(C)C2CCCO2)o1 (stereo not drawn) ; inhibition = -14.8

Data point: O=C1CSC2(C(=O)N3CCCc4cccc2c43)N1c1cccc(C(F)(F)F)c1 (stereo not drawn) ; inhibition = -2.03

Data point: O=C1NCC(O)=C1C=NCCO ; inhibition = 4.69

Data point: COc1ccc(CSc2nc3ccccc3c(=O)[nH]2)cc1F ; inhibition = 2.06

Data point: C[C@H](CO)N1C[C@H](C)[C@@H](CN(C)Cc2ccc(-c3ccccc3)cc2)Oc2c(NS(=O)(=O)c3ccc(F)cc3)cccc2C1=O ; inhibition = -1.65
